Molecular target: pm3 (human, sulfated tyrosine at Y17)
Sequence (peptide, as listed by the source): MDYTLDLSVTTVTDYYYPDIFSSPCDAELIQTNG
Test: ELISA on coated peptide [cont.]

BINDER | binding result
3-53 (antibody, V domains shown) VH: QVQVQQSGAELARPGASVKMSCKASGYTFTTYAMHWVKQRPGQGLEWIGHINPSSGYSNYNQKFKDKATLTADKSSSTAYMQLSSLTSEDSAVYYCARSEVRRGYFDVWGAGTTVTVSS VL: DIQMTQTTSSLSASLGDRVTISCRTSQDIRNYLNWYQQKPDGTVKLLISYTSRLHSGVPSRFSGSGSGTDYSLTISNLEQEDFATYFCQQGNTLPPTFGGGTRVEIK | binds
